# Study system: Fibrinogen binding to human thrombocytes
# Assay: Fibrinogen binding to human thrombocytes
# Settings: 125I fibrinogen; gel-filtered human platelets; ADP; 20 minutes at ambient temperature; read-out: Fibrinogen binding test IC50
Counter-ions that a name gives are not always drawn.
Measured property: IC50 (nM)

Study these solved cases before continuing.
COC(=O)CCCCOc1ccc(-c2ccc(C(=N)N)cc2)cc1 [6(9), hydrochloride]: 970
N=C(N)c1ccc(-c2ccc(CC(=O)N3CCCC(CC(=O)O)C3)cc2)cc1 (stereo not shown) [1(47), hydrochloride]: 470
N=C(N)c1ccc(-c2ccc(C(=O)N3CCN(CCC(=O)O)CC3)cc2)cc1 [1(68), dihydrochloride]: 560
COC(=O)CC1CCCN(C(=O)c2ccc(-c3ccc(C(=N)N)cc3)cc2)C1 (stereo not shown) [6(52), hydrochloride]: 16000

P = N=C(N)c1ccc(-c2ccc(C(=O)NCCCC(=O)O)cc2)cc1 [1(2)]
Q = COC(=O)CCNC(=O)COc1ccc(-c2ccc(C(=N)N)cc2)cc1 [6(3)]
Hi team, can someone confirm which has the larger IC50: P or Q ? Thanks. Let me know the label of the one you choose. Q

The measurements presented in this section are drawn from patent US5736559A.
